These data points were gathered from the supplement of paper PMC12592484.

Tested on: CAF#2 (primary prostate cancer-associated fibroblasts of iCAF-like type)
experimental details: drug sensitivity score (DSS2, normalised partial AUC of dose-response, 72 h CellTiter-Glo viability) (DSS (dimensionless)); higher = more sensitive (stronger growth inhibition / cytotoxicity); extreme values may be limits of the assay
observable: drug sensitivity score

# annotated cases, reported drug sensitivity score shown
COc1cc2nccc(Oc3ccc(NC(=O)C4(C(=O)Nc5ccc(F)cc5)CC4)cc3)c2cc1OC [Cabozantinib] (tested concentration range 0.1-1000 nM) :: 7.9
CCCCCCCCc1ccc(CCC(N)(CO)CO)cc1 [Fingolimod] (tested concentration range 1-10000 nM) :: 5.3
CCOc1cc2ncc(C#N)c(Nc3ccc(OCc4ccccn4)c(Cl)c3)c2cc1NC(=O)/C=C/CN(C)C [Neratinib] (tested concentration range 0.1-1000 nM) :: 2.1
CCN(CC)CCOc1ccc(C(=C(Cl)c2ccccc2)c2ccccc2)cc1 [Clomifene] (tested concentration range 1-10000 nM) :: 5.8
COc1cccc2c1C(=O)c1c(O)c3c(c(O)c1C2=O)C[C@@](O)(C(=O)CO)C[C@@H]3O[C@H]1C[C@H](N)[C@H](O)[C@H](C)O1 [Doxorubicin] (tested concentration range 0.1-1000 nM) :: 7.8
CCN(CC)Cc1ccc2cc(COC(=O)Nc3ccc(C(=O)NO)cc3)ccc2c1 [Givinostat] (tested concentration range 0.1-1000 nM) :: 4.2

Consider the compound CC(C)(C)Cn1c(N)nc2ccc(-c3[nH]c(C(C)(C)C)nc3-c3ccc(F)cc3)nc21 [Ralimetinib] (tested concentration range 1-10000 nM) and give its recorded drug sensitivity score. 1.9

Consider the compound Cc1sc2c(c1C)C(c1ccc(Cl)cc1)=N[C@@H](CC(=O)NCCCCNC(=O)COc1cccc3c1C(=O)N(C1CCC(=O)NC1=O)C3=O)c1nnc(C)n1-2 (stereo not given in full) [dBET1] (tested concentration range 1-10000 nM) and give its recorded drug sensitivity score. 2.7

Consider the compound CCc1c(C(=O)C(N)=O)c2c(OCC(=O)O)cccc2n1Cc1ccccc1 [Varespladib] (tested concentration range 1-10000 nM) and give its recorded drug sensitivity score. 0

Consider the compound Cc1cc(F)c(C(=O)Nc2cccc(-c3nncn3C(C)C)n2)cc1-n1cnc(C2CC2)c1 [Selonsertib] (tested concentration range 0.1-1000 nM) and give its recorded drug sensitivity score. 0
